In this section, each of the compounds is paired with its reported remaining at 264 h, 41.3 µg/mL.
Assay: HPLC stability study in plasma
Format: in vitro ADME, human
Settings: human, buffered plasma (plasma:buffer 1:9); Plasma; study over 264 h

compound: C=CCC1C(=O)N(c2cc(OC)c(OC)c(OC)c2)C1c1ccc(OC)cc1 (stereo not shown) [10h]
remaining at 264 h, 41.3 µg/mL [%]: 100
//
compound: C=CCC1C(=O)N(c2cc(OC)c(OC)c(OC)c2)C1c1ccc(OC)c([N+](=O)[O-])c1 (stereo not shown) [10q]
remaining at 264 h, 41.3 µg/mL [%]: 90
//
compound: C=CCC1C(=O)N(c2cc(OC)c(OC)c(OC)c2)C1c1ccc(OC)c(O)c1 (stereo not shown) [10p]
remaining at 264 h, 41.3 µg/mL [%]: 97
//
compound: C=CCC1C(=O)N(c2cc(OC)c(OC)c(OC)c2)C1c1ccc(OC)c(N)c1 (stereo not shown) [10r]
remaining at 264 h, 41.3 µg/mL [%]: 97
